- system.under.test: T1, recombinant human IL-13 (human, UniProt P35225 35-146)
- T1 construct: also called rh-IL-13; hIL-13
- protocol.details: SPR
readout.kind: koff (s⁻¹)
Unit s⁻¹ implied. Number only.

>  <binder>
BDG38.091 (antibody, V domains shown, IgG1) VH: QMQLVESGGGVVQPGRSLTLSCAASGFEFRTYGMHWVRQAPGKGLEWLGVIWYDGSNTHYADSVKGRFTITRDNSKNTLNLQMNSLRVEDTAVYYCVRAPQWYLTAEAFDLWGQGTMVTVSS VL: SYILTQPPSVSVAPGETATITCGGNLIGSRLVHWYQQKPGQAPVLVIYDDSDRPSRIPERFSGSNIGNTATLTISDVEAGDEADYYCQVWDHYSNHYVFGGGTKLTVL

>  <koff, s⁻¹>
0.000216

$$$$
>  <binder>
BDG38.116 (antibody, V domains shown, IgG1) VH: QMQLVESGGGVVQPGRSLTLSCAASGFEFRTYGMHWVRQAPGKGLEWVAVIWDDGSNTHYADSVKGRFTITRDNSKNTLNLQMNSLRVEDTAVYYCVRAPQWYLTAEAFDLWGQGTMVTVSS VL: SYVLTQPPSVSVAPGQTATITCGGNLIGARLVHWYQQKPGQAPVLVIYDDSDRPSRIPERFSGSNIGNTATLTIERVEAGDEADYYCQVWDYYSDTMVFGGGTKLTVL

>  <koff, s⁻¹>
0.000116

$$$$

Q: Report measured koff; entry is BDG38.117 (antibody, V domains shown, IgG1) VH: QMQLVESGGGVVQPGRSLTLSCAASGFEFRTYGMHWVRQAPGKGLEWVGVIWDDGSNTHYADSVKGRFTITRDNSKNTLNLQMNSLRAEDTAVYYCARAPQWYLTAEAFDLWGQGTMVTVSS VL: SYVLTQPPSVSVAPGETATITCGGNLIGAKLVHWYQQKPGQAPVLVIYDDSDRPSRIPERFSGSNIGNTATLTIEDVEAGDEADYYCQVWDYSSDTMVFGGGTKLTVL
A: 0.000103

Q: Report measured koff; entry is BDG38.090 (antibody, V domains shown, IgG1) VH: QMQLVESGGGVVQPGRSLTLSCAASGFEFRTYGMHWVRQAPGKGLEWLGVIWDDGSNTHYADSVKGRFTITRDNSKNTLNLQMNSLRVEDTAVYYCARAPQWYLTAEAFDLWGQGTMVTVSS VL: SYILTQPPSVSVAPGETARITCGGNLIGARLVHWYQQKPGQAPVLVVYDDSDRPSRIPERFSGSNIGNTATLTIEDVEEGDEADYYCQVWDYYSDHMVFGGGTKLTVL
A: 0.00013
